# Test system: Escherichia coli TOP10
# Assay text: shrunken log2 fold change of peptide-encoding DNA abundance (4.5 h post-induction vs induction); higher = less antimicrobial activity (less host growth inhibition)
# Condition set: time post-induction: 4.5 h; library: site-saturation at positions 5, 18, 19, 20
Measure: shrunken log2 fold change
Output: the number by itself.

Reference set (7 entries):
>  <Entry sequence>
RRIRHRPPRLPRPRPRPNIAPRP

>  <Measured value>
-0.112

$$$$
>  <Entry sequence>
RRIRSRPPRLPRPRPRPEDDPRP

>  <Measured value>
0.744

$$$$
>  <Entry sequence>
RRIRVRPPRLPRPRPRPATEPRP

>  <Measured value>
-0.0882

$$$$
>  <Entry sequence>
RRIRIRPPRLPRPRPRPQYSPRP

>  <Measured value>
-0.581

$$$$
>  <Entry sequence>
RRIRPRPPRLPRPRPRPWHVPRP

>  <Measured value>
-0.0812

$$$$
>  <Entry sequence>
RRIRLRPPRLPRPRPRPWSRPRP

>  <Measured value>
-0.264

$$$$
>  <Entry sequence>
RRIRYRPPRLPRPRPRPCFKPRP

>  <Measured value>
-0.328

$$$$

In the following, a different sequence is considered.
What value of measured shrunken log2 fold change is listed for RRIRVRPPRLPRPRPRPRNDPRP ?
-0.00857

====

# Tested on: Escherichia coli TOP10
# Assay text: shrunken log2 fold change of peptide-encoding DNA abundance (4.5 h post-induction vs induction); higher = less antimicrobial activity (less host growth inhibition)
# Condition set: time post-induction: 4.5 h; library: site-saturation at positions 5, 18, 19, 20
Measure: shrunken log2 fold change
Answer with the value's number alone.

Which shrunken log2 fold change is reported with Escherichia coli TOP10 for this entry: RRIRYRPPRLPRPRPRPEFDPRP ?
-0.0306

Do the same for RRIRKRPPRLPRPRPRPCVWPRP please
0.205

====

# Tested on: Escherichia coli TOP10
# Assay text: shrunken log2 fold change of peptide-encoding DNA abundance (4.5 h post-induction vs induction); higher = less antimicrobial activity (less host growth inhibition)
# Condition set: time post-induction: 4.5 h; library: site-saturation at positions 5, 18, 19, 20
Measure: shrunken log2 fold change
Simply state the number, no unit and no words.

Past entries and their recorded results:
>  <Entry sequence>
RRIRRRPPRLPRPRPRPIYVPRP

>  <shrunken log2 fold change>
-0.114

$$$$
>  <Entry sequence>
RRIRLRPPRLPRPRPRPDWQPRP

>  <shrunken log2 fold change>
-0.0564

$$$$
>  <Entry sequence>
RRIRRRPPRLPRPRPRPVNKPRP

>  <shrunken log2 fold change>
0.169

$$$$

What is its shrunken log2 fold change for Escherichia coli TOP10? Entry: RRIRSRPPRLPRPRPRPVQQPRP
-0.00468

Next: RRIRRRPPRLPRPRPRPTQHPRP
0.691

Repeat for the following sequence: RRIRWRPPRLPRPRPRPTTMPRP
-0.0212

Next up: RRIRPRPPRLPRPRPRPAQPPRP
0.732

Similarly, RRIRQRPPRLPRPRPRPDVRPRP ?
-0.023

Then this sequence: RRIRNRPPRLPRPRPRPIAMPRP
-0.0835

And the next one, RRIRARPPRLPRPRPRPKPPPRP ?
0.959

Can you check RRIRSRPPRLPRPRPRPRCHPRP next?
-0.0928

Could you do the same for RRIRQRPPRLPRPRPRPPGRPRP , please?
0.853

Same for RRIRIRPPRLPRPRPRPKKKPRP
-0.442

Same thing, different sequence: RRIRQRPPRLPRPRPRPSIQPRP
-0.13

And what about the sequence RRIRLRPPRLPRPRPRPAEQPRP ?
0.0174

====

Parameter shrunken log2 fold change: see the listing below.
# Tested on: Escherichia coli TOP10
# Assay text: shrunken log2 fold change of peptide-encoding DNA abundance (4.5 h post-induction vs induction); higher = less antimicrobial activity (less host growth inhibition)
# Condition set: time post-induction: 4.5 h; library: site-saturation at positions 5, 18, 19, 20
Form rule: numeric answer, no unit written next to it.

Here are 4 sequences together with their reported answers.
>  <Entry sequence>
RRIRRRPPRLPRPRPRPCVGPRP

>  <shrunken log2 fold change>
-0.147

$$$$
>  <Entry sequence>
RRIRCRPPRLPRPRPRPQCWPRP

>  <shrunken log2 fold change>
0.0604

$$$$
>  <Entry sequence>
RRIRNRPPRLPRPRPRPKMEPRP

>  <shrunken log2 fold change>
0.015

$$$$
>  <Entry sequence>
RRIRARPPRLPRPRPRPFITPRP

>  <shrunken log2 fold change>
-0.543

$$$$

Give the measured shrunken log2 fold change of RRIRARPPRLPRPRPRPQPEPRP .
1.04

Try RRIRIRPPRLPRPRPRPCGGPRP next.
0.188

Item: RRIRPRPPRLPRPRPRPRKTPRP
0.0393

Another: RRIRMRPPRLPRPRPRPVWNPRP
-0.0831

====

# Tested on: Escherichia coli TOP10
# Assay text: shrunken log2 fold change of peptide-encoding DNA abundance (4.5 h post-induction vs induction); higher = less antimicrobial activity (less host growth inhibition)
# Condition set: time post-induction: 4.5 h; library: site-saturation at positions 5, 18, 19, 20
Rule: shrunken log2 fold change under -0.03 gives 0.0, otherwise 1.0.

Completed entries (count: 5):
>  <Entry sequence>
RRIRYRPPRLPRPRPRPCPHPRP

>  <Cat>
1.0

$$$$
>  <Entry sequence>
RRIRDRPPRLPRPRPRPMAHPRP

>  <Cat>
1.0

$$$$
>  <Entry sequence>
RRIRKRPPRLPRPRPRPIAPPRP

>  <Cat>
1.0

$$$$
>  <Entry sequence>
RRIRYRPPRLPRPRPRPDRYPRP

>  <Cat>
0.0

$$$$
>  <Entry sequence>
RRIRDRPPRLPRPRPRPDGRPRP

>  <Cat>
1.0

$$$$

Could you tell me if the measured shrunken log2 fold change of RRIRWRPPRLPRPRPRPKVQPRP reaches -0.03 or more?
1.0

Entry to check: RRIRFRPPRLPRPRPRPYTLPRP
0.0

====

# System: Escherichia coli TOP10
# Assay text: shrunken log2 fold change of peptide-encoding DNA abundance (4.5 h post-induction vs induction); higher = less antimicrobial activity (less host growth inhibition)
# Condition set: time post-induction: 4.5 h; library: site-saturation at positions 5, 18, 19, 20
shrunken log2 fold change values, listed per item

>  <Entry sequence>
RRIRERPPRLPRPRPRPKILPRP

>  <Assay target>
Escherichia coli TOP10

>  <Measure>
shrunken log2 fold change

>  <Measured value>
-0.0994

$$$$
>  <Entry sequence>
RRIRGRPPRLPRPRPRPLQQPRP

>  <Assay target>
Escherichia coli TOP10

>  <Measure>
shrunken log2 fold change

>  <Measured value>
0.28

$$$$
>  <Entry sequence>
RRIRERPPRLPRPRPRPHWDPRP

>  <Assay target>
Escherichia coli TOP10

>  <Measure>
shrunken log2 fold change

>  <Measured value>
-0.00134

$$$$
>  <Entry sequence>
RRIRWRPPRLPRPRPRPQANPRP

>  <Assay target>
Escherichia coli TOP10

>  <Measure>
shrunken log2 fold change

>  <Measured value>
0.395

$$$$

Name the recorded shrunken log2 fold change for RRIRSRPPRLPRPRPRPYWAPRP .
-0.177

Here is the next sequence: RRIRARPPRLPRPRPRPGGPPRP
0.294

Try this sequence next: RRIRLRPPRLPRPRPRPCQIPRP
-0.102

Thanks! And RRIRGRPPRLPRPRPRPRTDPRP ?
1.06

Would you kindly repeat that for RRIRPRPPRLPRPRPRPCTSPRP ?
-0.0721

Do the same for RRIRFRPPRLPRPRPRPSRWPRP please
0.29

Next record, please: RRIRERPPRLPRPRPRPPIGPRP
-0.144

Repeat with RRIRVRPPRLPRPRPRPHGRPRP
-0.0651

Item: RRIRPRPPRLPRPRPRPQIVPRP
-0.594

Same read-out for RRIRYRPPRLPRPRPRPIYWPRP ?
-0.204

Lookup RRIRIRPPRLPRPRPRPGQVPRP
-0.0393

Same question for RRIRYRPPRLPRPRPRPCCIPRP please.
-0.129

Same again, this time with RRIRTRPPRLPRPRPRPAWVPRP
0.285

====

# Tested on: Escherichia coli TOP10;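 further: peptides expressed intracellularly from a pBAD plasmid library in pooled LB shake-flask culture, induced with 0.3% L-arabinose, DNA abundance read by NGS, three biological replicates, DESeq2 with apeglm shrinkage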
# Assay text: shrunken log2 fold change of peptide-encoding DNA abundance (4.5 h post-induction vs induction); higher = less antimicrobial activity (less host growth inhibition)
# Condition set: time post-induction: 4.5 h; library: site-saturation at positions 5, 18, 19, 20
# class assignment by measured shrunken log2 fold change: low: < 0.04; intermediate: ≥ 0.04 and < 0.3; high: ≥ 0.3

Observe how each entry below is paired with its result.
>  <Entry sequence>
RRIRARPPRLPRPRPRPLHDPRP

>  <Cat>
high

$$$$
>  <Entry sequence>
RRIRSRPPRLPRPRPRPAHRPRP

>  <Cat>
low

$$$$
>  <Entry sequence>
RRIRLRPPRLPRPRPRPPLKPRP

>  <Cat>
intermediate

$$$$
>  <Entry sequence>
RRIRGRPPRLPRPRPRPFFIPRP

>  <Cat>
intermediate

$$$$
>  <Entry sequence>
RRIRERPPRLPRPRPRPQCQPRP

>  <Cat>
intermediate

$$$$
>  <Entry sequence>
RRIRRRPPRLPRPRPRPWSTPRP

>  <Cat>
low

$$$$

Exercise: read the entry RRIRPRPPRLPRPRPRPIWSPRP and state which class it falls under.
intermediate
